Quick list: k off per entry.
- test-target: Receptor tyrosine-protein kinase erbB-2 (Homo sapiens, UniProt P04626)
- Sequence (P04626 whole entry): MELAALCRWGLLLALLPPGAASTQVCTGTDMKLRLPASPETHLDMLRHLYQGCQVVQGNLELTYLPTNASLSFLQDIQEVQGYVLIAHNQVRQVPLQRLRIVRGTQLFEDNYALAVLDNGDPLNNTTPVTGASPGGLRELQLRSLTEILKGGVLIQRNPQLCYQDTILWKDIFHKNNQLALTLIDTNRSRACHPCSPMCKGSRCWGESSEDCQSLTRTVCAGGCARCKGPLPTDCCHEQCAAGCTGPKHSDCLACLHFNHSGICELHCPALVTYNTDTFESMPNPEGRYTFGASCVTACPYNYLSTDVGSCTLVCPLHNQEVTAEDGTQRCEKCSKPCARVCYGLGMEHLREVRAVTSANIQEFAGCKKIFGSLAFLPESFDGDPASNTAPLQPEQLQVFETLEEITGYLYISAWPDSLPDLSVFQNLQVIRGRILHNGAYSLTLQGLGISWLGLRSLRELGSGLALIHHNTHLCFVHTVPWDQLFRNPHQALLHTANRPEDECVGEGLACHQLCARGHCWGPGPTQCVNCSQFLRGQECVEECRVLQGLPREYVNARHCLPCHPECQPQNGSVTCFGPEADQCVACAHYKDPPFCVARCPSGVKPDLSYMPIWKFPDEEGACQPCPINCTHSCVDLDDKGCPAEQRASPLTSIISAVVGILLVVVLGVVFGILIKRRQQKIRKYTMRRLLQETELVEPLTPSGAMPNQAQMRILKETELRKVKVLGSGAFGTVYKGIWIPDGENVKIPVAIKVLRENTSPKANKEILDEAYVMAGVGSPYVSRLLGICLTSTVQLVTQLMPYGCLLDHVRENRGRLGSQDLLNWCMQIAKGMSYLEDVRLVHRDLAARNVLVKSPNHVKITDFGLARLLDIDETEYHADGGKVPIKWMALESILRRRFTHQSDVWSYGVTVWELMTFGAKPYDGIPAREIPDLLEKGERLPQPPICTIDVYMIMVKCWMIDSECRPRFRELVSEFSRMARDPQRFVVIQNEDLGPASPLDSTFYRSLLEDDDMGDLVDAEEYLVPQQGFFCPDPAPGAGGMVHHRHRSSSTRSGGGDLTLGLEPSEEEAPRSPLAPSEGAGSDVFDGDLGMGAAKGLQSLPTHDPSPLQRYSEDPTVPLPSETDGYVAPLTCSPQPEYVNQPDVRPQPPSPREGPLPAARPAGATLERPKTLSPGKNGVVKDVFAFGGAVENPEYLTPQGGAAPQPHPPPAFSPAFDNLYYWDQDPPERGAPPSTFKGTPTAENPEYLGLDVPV
- procedure-details: Kinetic constant for peptide inhibitor binding to HER2 receptor
Positions of bridges follow the written chain, without caps; N, C: chain ends. Residues, ends and D or L forms follow the SMILES beside them.

{"compound": "CSCC[C@H](NC(=O)[C@H](Cc1ccc(O)cc1)NC(=O)[C@@H]1CSSC[C@H](NC(=O)[C@@H](N)Cc2ccccc2)C(=O)NCC(=O)N[C@@H](CC(=O)O)C(=O)NCC(=O)N[C@@H](Cc2ccccc2)C(=O)N[C@@H](Cc2ccc(O)cc2)C(=O)N[C@@H](C)C(=O)N1)C(=O)N[C@@H](CC(=O)O)C(=O)N[C@H](C(=O)O)C(C)C (H-FCGDGFYACYMDV-OH; disulfide 2-9)", "test-target": "Receptor tyrosine-protein kinase erbB-2 (Homo sapiens, UniProt P04626)", "k off": "0.000701 s⁻¹"}
{"compound": "CSCC[C@H](NC(=O)[C@H](Cc1ccc(O)cc1)NC(=O)[C@@H]1CSSC[C@H](NC(=O)[C@@H](N)Cc2ccccc2)C(=O)N[C@@H](CC(=O)O)C(=O)NCC(=O)N[C@@H](Cc2ccccc2)C(=O)N[C@@H](Cc2ccc(O)cc2)C(=O)N[C@@H](C)C(=O)N1)C(=O)N[C@@H](CC(=O)O)C(=O)N[C@H](C(=O)O)C(C)C (stereo in doubt; 2)", "test-target": "Receptor tyrosine-protein kinase erbB-2 (Homo sapiens, UniProt P04626)", "k off": "0.000643 s⁻¹"}
{"compound": "CSCC[C@H](NC(=O)[C@H](Cc1ccc(O)cc1)NC(=O)[C@@H]1CSSC[C@H](NC(=O)[C@@H](N)Cc2ccccc2)C(=O)N[C@@H](CC(=O)O)C(=O)NCC(=O)N[C@@H](Cc2ccccc2)C(=O)N[C@@H](Cc2ccc(O)cc2)C(=O)N[C@@H](C)C(=O)N1)C(=O)N[C@@H](CC(=O)O)C(=O)N[C@H](C(N)=O)C(C)C", "test-target": "Receptor tyrosine-protein kinase erbB-2 (Homo sapiens, UniProt P04626)", "k off": "0.000453 s⁻¹"}
{"compound": "CC(C)[C@H](NC(=O)[C@H](CC(=O)O)NC(=O)[C@H](CCCCN)NC(=O)[C@H](Cc1ccc(O)cc1)NC(=O)[C@@H]1CSSC[C@H](NC(=O)[C@@H](N)Cc2ccccc2)C(=O)N[C@@H](CC(=O)O)C(=O)NCC(=O)N[C@@H](Cc2ccccc2)C(=O)N[C@@H](Cc2ccc(O)cc2)C(=O)N[C@@H](C)C(=O)N1)C(=O)O (H-FCDGFYACYKDV-OH; disulfide 2-8)", "test-target": "Receptor tyrosine-protein kinase erbB-2 (Homo sapiens, UniProt P04626)", "k off": "0.00125 s⁻¹"}
{"compound": "CSCC[C@H](NC(=O)[C@H](Cc1ccc(O)cc1)NC(=O)[C@@H]1CSSC[C@H](NC(=O)[C@@H](N)Cc2ccc(O)cc2)C(=O)N[C@@H](CC(=O)O)C(=O)NCC(=O)N[C@@H](Cc2ccccc2)C(=O)N[C@@H](Cc2ccc(O)cc2)C(=O)N[C@@H](C)C(=O)N1)C(=O)N[C@@H](CC(=O)O)C(=O)N[C@H](C(N)=O)C(C)C", "test-target": "Receptor tyrosine-protein kinase erbB-2 (Homo sapiens, UniProt P04626)", "k off": "0.000294 s⁻¹"}
{"compound": "CSCC[C@H](NC(=O)[C@H](Cc1ccc(O)cc1)NC(=O)[C@@H]1CSSC[C@H](NC(=O)[C@H](Cc2ccccc2)NC(=O)CN)C(=O)N[C@@H](CC(=O)O)C(=O)NCC(=O)N[C@@H](Cc2ccccc2)C(=O)N[C@@H](Cc2ccc(O)cc2)C(=O)N[C@@H](C)C(=O)N1)C(=O)N[C@@H](CC(=O)O)C(=O)N[C@H](C(=O)O)C(C)C (H-GFCDGFYACYMDV-OH; disulfide 3-9)", "test-target": "Receptor tyrosine-protein kinase erbB-2 (Homo sapiens, UniProt P04626)", "k off": "0.000808 s⁻¹"}
{"compound": "CSCC[C@H](NC(=O)[C@H](Cc1ccc(O)cc1)NC(=O)[C@@H]1CSSC[C@H](NC(=O)[C@@H](N)Cc2ccccc2)C(=O)N[C@@H](CC(=O)O)C(=O)NCC(=O)N[C@@H](Cc2ccccc2)C(=O)N[C@@H](Cc2ccc(O)cc2)C(=O)N[C@@H](C)C(=O)N1)C(=O)N[C@@H](CC(=O)O)C(=O)N[C@H](C(=O)O)C(C)C (stereo in doubt; 9)", "test-target": "Receptor tyrosine-protein kinase erbB-2 (Homo sapiens, UniProt P04626)", "k off": "0.00106 s⁻¹"}
{"compound": "CSCC[C@H](NC(=O)[C@@H](Cc1ccc(O)cc1)NC(=O)[C@@H]1CSSC[C@H](NC(=O)[C@H](N)Cc2ccccc2)C(=O)N[C@@H](CC(=O)O)C(=O)NCC(=O)N[C@@H](Cc2ccccc2)C(=O)N[C@@H](Cc2ccc(O)cc2)C(=O)N[C@@H](C)C(=O)N1)C(=O)N[C@@H](CC(=O)O)C(=O)N[C@H](C(N)=O)C(C)C", "test-target": "Receptor tyrosine-protein kinase erbB-2 (Homo sapiens, UniProt P04626)", "k off": "0.000603 s⁻¹"}
{"compound": "CSCC[C@H](NC(=O)[C@H](Cc1ccc(O)cc1)NC(=O)[C@@H]1CSSC[C@H](NC(=O)[C@@H](N)Cc2ccccc2)C(=O)N[C@@H](CC(=O)O)C(=O)NCC(=O)N[C@@H](Cc2ccccc2)C(=O)N[C@@H](Cc2ccc(O)cc2)C(=O)N[C@@H](C)C(=O)N1)C(=O)N[C@@H](CC(=O)O)C(=O)N[C@H](C(=O)N[C@@H](CCCCN)C(N)=O)C(C)C (H-FCDGFYACYMDVK-NH2; disulfide 2-8)", "test-target": "Receptor tyrosine-protein kinase erbB-2 (Homo sapiens, UniProt P04626)", "k off": "0.000512 s⁻¹"}
